Test: Antiinflammatory activity assessed as inhibition of albumin denaturation after 15 mins by BSA assay
Type: functional
Value Type: IC50 (µg/mL)

(P) O=C([O-])Cc1ccccc1Nc1c(Cl)cccc1Cl.[Na+] [DICLOFENAC SODIUM]
(Q) COc1cc(C=C(C(=O)/C=C/c2ccc(N(C)C)cc2)C(=O)/C=C/c2ccc(N(C)C)cc2)ccc1O
(R) CN(C)c1ccc(/C=C/C(=O)/C(CNc2ccc(F)cc2)=C(O)/C=C/c2ccc(N(C)C)cc2)cc1
Please list these compounds in decreasing order of IC50. Answer format: the labels, in the requested order. R, Q, P

* * *

Assay: Antiinflammatory activity assessed as inhibition of albumin denaturation after 15 mins by BSA assay
Type: functional
Value Type: IC50 (µg/mL)

Here is how some compounds turned out for IC50.
| Compound | IC50 (µg/mL) |
| --- | --- |
| CN(C)c1ccc(/C=C/c2cc(/C=C/c3ccc(N(C)C)cc3)n(-c3ccccc3)n2)cc1 | 29.44 |
| CN(C)c1ccc(/C=C/C(=O)/C=C(O)/C=C/c2ccc(N(C)C)cc2)cc1 | 180.38 |
| COc1ccccc1NC/C(C(=O)/C=C/c1ccc(N(C)C)cc1)=C(O)\C=C\c1ccc(N(C)C)cc1 | 81.36 |

(A) CN(C)c1ccc(/C=C/C(=O)/C(CNc2cccc(C(F)(F)F)c2)=C(O)/C=C/c2ccc(N(C)C)cc2)cc1
(B) CN(C)c1ccc(/C=C/C(=O)/C(CNc2ccccc2)=C(O)/C=C/c2ccc(N(C)C)cc2)cc1
(C) CN(C)c1ccc(/C=C/c2cc(/C=C/c3ccc(N(C)C)cc3)[nH]n2)cc1
Order field: IC50 | Direction: descending (largest first) Provide the ranking by listing each label in its place in the requested order. B, A, C
(B: 808.36 µg/mL, A: 186.05 µg/mL, C: 51.79 µg/mL)

(A) CN(C)c1ccc(/C=C/c2cc(/C=C/c3ccc(N(C)C)cc3)n(-c3ccc(F)cc3)n2)cc1
(B) COc1ccc(-n2nc(/C=C/c3ccc(N(C)C)cc3)cc2/C=C/c2ccc(N(C)C)cc2)cc1
(C) COc1cc(/C=C/C(=O)CC(=O)/C=C/c2ccc(O)c(OC)c2)ccc1O [CURCUMIN]
Falling order of IC50, please. Please reply with the labels ordered as requested. Many thanks. B, A, C
(B: 751.12 µg/mL, A: 216.32 µg/mL, C: 129.85 µg/mL)

* * *

Assay: Antioxidant activity assessed as DPPH free radical scavenging activity by UV-visible spectrophotometric analysis
Assay type: physicochemical
Value Type: IC50 (µg/mL)

| Compound | Value Type | Output Unit | Endpoint Value |
| --- | --- | --- | --- |
| CN(C)c1ccc(/C=C/c2cc(/C=C/c3ccc(N(C)C)cc3)n(-c3ccccc3)n2)cc1 | IC50 | µg/mL | 74.03 |
| CN(C)c1ccc(/C=C/C(=O)/C=C(O)/C=C/c2ccc(N(C)C)cc2)cc1 | IC50 | µg/mL | 78.52 |
| CN(C)c1ccc(/C=C/c2cc(/C=C/c3ccc(N(C)C)cc3)[nH]n2)cc1 | IC50 | µg/mL | 46.05 |
| O=C1O[C@H]([C@@H](O)CO)C(O)=C1O [ASCORBIC ACID] | IC50 | µg/mL | 65.53 |

* * *

Experiment: Antioxidant activity assessed as DPPH free radical scavenging activity by UV-visible spectrophotometric analysis
Format: physicochemical
Value Type: IC50 (µg/mL)

Reference set, count: 6
| Smiles Input | Value Type | Output Unit | Endpoint Value |
| --- | --- | --- | --- |
| CN(C)c1ccc(/C=C/C(=O)/C(CNc2cccc(C(F)(F)F)c2)=C(O)/C=C/c2ccc(N(C)C)cc2)cc1 | IC50 | µg/mL | 81.69 |
| CN(C)c1ccc(/C=C/C(=O)/C(CNc2ccccc2)=C(O)/C=C/c2ccc(N(C)C)cc2)cc1 | IC50 | µg/mL | 79.06 |
| CN(C)c1ccc(/C=C/C(=O)/C(CNc2ccc(F)cc2)=C(O)/C=C/c2ccc(N(C)C)cc2)cc1 | IC50 | µg/mL | 48.16 |
| COc1cc(C=C(C(=O)/C=C/c2ccc(N(C)C)cc2)C(=O)/C=C/c2ccc(N(C)C)cc2)ccc1O | IC50 | µg/mL | 75.37 |
| CN(C)c1ccc(/C=C/c2cc(/C=C/c3ccc(N(C)C)cc3)n(-c3ccc(F)cc3)n2)cc1 | IC50 | µg/mL | 74.38 |
| COc1ccccc1NC/C(C(=O)/C=C/c1ccc(N(C)C)cc1)=C(O)\C=C\c1ccc(N(C)C)cc1 | IC50 | µg/mL | 76.28 |

(1) COc1cc(/C=C/C(=O)CC(=O)/C=C/c2ccc(O)c(OC)c2)ccc1O
(2) COc1ccc(-n2nc(/C=C/c3ccc(N(C)C)cc3)cc2/C=C/c2ccc(N(C)C)cc2)cc1
Consider entries 1 and 2 . Which has the numerically lower IC50? Which one? Tell me its label. 1
(1: 52.51 µg/mL, 2: 88.05 µg/mL)

* * *

Assay: Antioxidant activity assessed as H2O2 scavenging activity
Type: physicochemical
Value Type: IC50 (µg/mL)

Some solved entries appear below for comparison.
| Smiles Input | Value Type | Endpoint Value |
| --- | --- | --- |
| COc1ccc(-n2nc(/C=C/c3ccc(N(C)C)cc3)cc2/C=C/c2ccc(N(C)C)cc2)cc1 | IC50 | 79.59 |
| CN(C)c1ccc(/C=C/C(=O)/C=C(O)/C=C/c2ccc(N(C)C)cc2)cc1 | IC50 | 74.56 |
| CN(C)c1ccc(/C=C/c2cc(/C=C/c3ccc(N(C)C)cc3)n(-c3ccccc3)n2)cc1 | IC50 | 72.42 |
| COc1cc(C=C(C(=O)/C=C/c2ccc(N(C)C)cc2)C(=O)/C=C/c2ccc(N(C)C)cc2)ccc1O | IC50 | 44.95 |
| COc1ccccc1NC/C(C(=O)/C=C/c1ccc(N(C)C)cc1)=C(O)\C=C\c1ccc(N(C)C)cc1 | IC50 | 53.94 |
| CN(C)c1ccc(/C=C/C(=O)/C(CNc2ccccc2)=C(O)/C=C/c2ccc(N(C)C)cc2)cc1 | IC50 | 52.13 |

(I) CN(C)c1ccc(/C=C/c2cc(/C=C/c3ccc(N(C)C)cc3)n(-c3ccc(F)cc3)n2)cc1
(II) CN(C)c1ccc(/C=C/c2cc(/C=C/c3ccc(N(C)C)cc3)[nH]n2)cc1
For this pair, I and II , which shows a numerically higher IC50? Indicate which entry you chose by stating its label. I
(I: 89.05 µg/mL, II: 50.78 µg/mL)

(A) CN(C)c1ccc(/C=C/C(=O)/C(CNc2ccc(F)cc2)=C(O)/C=C/c2ccc(N(C)C)cc2)cc1
(B) O=C1O[C@H]([C@@H](O)CO)C(O)=C1O
# return whichever of A and B has the smaller IC50 Please identify the chosen entry by its label. A
